system-under-test: HIV-1 Env of isolate TR0.11 (clade B pseudovirus) (HIV-1)
assay-comment: cell-based or functional assay
observable: IC50 (neutralization, TZM-bl pseudovirus assay) (µg/mL)
Answer with a number only, understood to be in µg/mL.

Problem: Requested read-out: IC50 (neutralization, TZM-bl pseudovirus assay). Entry: 1469_M23 (PG16) (TCN-118) (antibody, V domains shown) VH: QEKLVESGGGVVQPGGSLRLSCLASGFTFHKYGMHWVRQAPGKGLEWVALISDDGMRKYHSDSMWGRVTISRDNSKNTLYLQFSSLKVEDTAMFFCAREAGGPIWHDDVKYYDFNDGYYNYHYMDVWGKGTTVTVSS VL: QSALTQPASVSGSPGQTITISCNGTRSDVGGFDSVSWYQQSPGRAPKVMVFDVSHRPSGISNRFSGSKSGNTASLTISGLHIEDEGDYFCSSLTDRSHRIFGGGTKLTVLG
Solution: 7.52

Problem: I have this binder here, 1456_A12 (PG16) (TCN-117) (antibody, V domains shown) VH: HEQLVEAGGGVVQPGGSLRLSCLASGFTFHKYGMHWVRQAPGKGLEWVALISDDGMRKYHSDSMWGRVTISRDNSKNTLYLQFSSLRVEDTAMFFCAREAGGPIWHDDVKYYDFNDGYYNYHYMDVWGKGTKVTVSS VL: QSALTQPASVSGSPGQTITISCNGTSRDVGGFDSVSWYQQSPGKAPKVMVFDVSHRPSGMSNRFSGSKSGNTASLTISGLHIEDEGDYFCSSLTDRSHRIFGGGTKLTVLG , and I need its recorded IC50 (neutralization, TZM-bl pseudovirus assay).
Solution: 3.05

Problem: Field request: IC50 (neutralization, TZM-bl pseudovirus assay) | item: 1503_H05 (PG16) (TCN-119) (antibody, V domains shown) VH: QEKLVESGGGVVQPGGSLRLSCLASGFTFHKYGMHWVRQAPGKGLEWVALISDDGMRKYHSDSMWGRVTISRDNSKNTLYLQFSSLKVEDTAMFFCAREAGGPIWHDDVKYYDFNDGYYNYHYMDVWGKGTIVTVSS VL: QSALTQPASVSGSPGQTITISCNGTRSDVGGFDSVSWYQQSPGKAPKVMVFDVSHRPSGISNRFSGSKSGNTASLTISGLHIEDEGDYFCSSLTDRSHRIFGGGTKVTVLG
Solution: 4.3

Problem: Consider the binder 1489_I13 (PG16) (TCN-120) (antibody, V domains shown) VH: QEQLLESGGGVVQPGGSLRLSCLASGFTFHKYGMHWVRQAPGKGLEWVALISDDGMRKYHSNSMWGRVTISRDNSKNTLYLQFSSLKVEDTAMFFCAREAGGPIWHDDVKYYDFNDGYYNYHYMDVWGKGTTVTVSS VL: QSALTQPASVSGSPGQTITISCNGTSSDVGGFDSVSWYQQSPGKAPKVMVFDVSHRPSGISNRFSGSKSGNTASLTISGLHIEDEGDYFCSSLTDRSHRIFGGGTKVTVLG and give its measured IC50 (neutralization, TZM-bl pseudovirus assay).
Solution: 10.9
